Entries annotated with measured pKd
# Assayed System: Epidermal growth factor receptor (Homo sapiens, UniProt P00533)
# Sequence (P00533 whole entry): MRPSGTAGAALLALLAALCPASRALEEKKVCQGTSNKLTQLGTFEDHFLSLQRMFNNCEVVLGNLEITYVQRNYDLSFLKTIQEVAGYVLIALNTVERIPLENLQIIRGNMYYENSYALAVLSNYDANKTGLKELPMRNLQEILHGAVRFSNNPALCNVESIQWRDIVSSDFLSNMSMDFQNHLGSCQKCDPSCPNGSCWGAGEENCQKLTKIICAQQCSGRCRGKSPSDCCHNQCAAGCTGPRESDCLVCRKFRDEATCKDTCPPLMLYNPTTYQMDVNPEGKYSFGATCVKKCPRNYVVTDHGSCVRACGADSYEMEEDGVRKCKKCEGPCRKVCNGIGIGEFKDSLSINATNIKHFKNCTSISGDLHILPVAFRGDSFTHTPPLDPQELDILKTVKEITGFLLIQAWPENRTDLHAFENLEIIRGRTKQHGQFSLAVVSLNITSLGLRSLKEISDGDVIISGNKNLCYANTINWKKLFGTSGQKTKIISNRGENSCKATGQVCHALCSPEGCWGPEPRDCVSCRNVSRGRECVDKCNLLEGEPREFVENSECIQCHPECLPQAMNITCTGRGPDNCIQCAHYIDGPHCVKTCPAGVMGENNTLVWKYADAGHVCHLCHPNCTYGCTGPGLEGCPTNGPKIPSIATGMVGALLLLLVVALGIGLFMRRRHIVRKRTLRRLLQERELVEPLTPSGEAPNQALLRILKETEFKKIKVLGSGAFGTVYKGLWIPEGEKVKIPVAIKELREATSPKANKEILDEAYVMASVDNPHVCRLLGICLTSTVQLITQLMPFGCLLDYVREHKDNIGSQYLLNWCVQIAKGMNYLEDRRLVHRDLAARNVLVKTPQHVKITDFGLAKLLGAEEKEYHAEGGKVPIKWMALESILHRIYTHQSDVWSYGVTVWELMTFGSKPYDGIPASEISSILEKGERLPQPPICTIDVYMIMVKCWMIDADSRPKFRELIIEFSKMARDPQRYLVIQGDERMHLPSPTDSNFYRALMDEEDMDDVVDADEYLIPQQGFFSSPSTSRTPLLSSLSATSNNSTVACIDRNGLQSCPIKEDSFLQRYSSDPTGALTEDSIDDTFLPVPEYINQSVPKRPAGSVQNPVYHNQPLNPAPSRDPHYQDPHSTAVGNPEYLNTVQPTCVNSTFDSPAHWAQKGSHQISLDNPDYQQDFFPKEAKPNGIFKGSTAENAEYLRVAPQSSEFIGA
# Assay Explanation: Biochemical Assay: Thus, while these compounds were extensively used in studying ILK-mediated cellular and disease processes, their reported inhibitory effects are probably due to unknown artifacts or indirect binding events. Next, we turned our attention to previously reported studies on kinase profiling and quantitative chemical proteomics. These studies suggested that a widely known lung …
pKd: −log10 of the molar value.
Value Kind: pKd

>  <Molecule>
C#Cc1cc(Nc2ncnc3cc(OCCOC)c(OCCOC)cc23)ccc1C

>  <Assayed System>
Epidermal growth factor receptor (Homo sapiens, UniProt P00533)

>  <Test Result>
6.13

$$$$
>  <Molecule>
C#Cc1cc(C#C)cc(Nc2ncnc3cc(OC)c(OC)cc23)c1

>  <Assayed System>
Epidermal growth factor receptor (Homo sapiens, UniProt P00533)

>  <Test Result>
5.94

$$$$
>  <Molecule>
C#Cc1cc(Nc2ncnc3cc(OCCOC)ccc23)cc(OCCOCC)c1

>  <Assayed System>
Epidermal growth factor receptor (Homo sapiens, UniProt P00533)

>  <Test Result>
4.75

$$$$
